Where a name gives a salt, the structure may show the parent alone.
Listing: melting point of selected compounds

# compound, melting point
data = [
    ("Cc1ccccc1N1CCN(Cc2ccc(Cl)cc2)CC1.O=C(O)C(=O)O.O=C(O)C(=O)O", "205 to 206 °C"),
    ("Cc1ccc(CN2CCN(c3cccc(Cl)c3)CC2)cc1.O=C(O)C(=O)O.O=C(O)C(=O)O", "199 to 200 °C"),
    ("Br.Br.Clc1ccc(CN2CCN(c3cccc(Cl)c3)CC2)cc1", "238 to 240 °C"),
    ("Clc1ccc(CN2CCN(c3ccc(Cl)c(Cl)c3)CC2)cc1", "82 to 83 °C"),
    ("Cc1ccc(N2CCN(Cc3ccc(Cl)cc3)CC2)cc1C (as salt: hydrochloride) [Compound 2, dihydrochloride]", "225 to 228 °C"),
]
